A collection of sequences and their measured protein stability index
assay: protein stability index of a GFP-peptide fusion (yeast GPS) (PSI 1-4); higher = more stable; sorted into four equal gates, so the index is relative within each strain; settings: pdr5∆
Enter a number only.

# count of solved cases: 2
1) NTEGSVVYEDSLELEKV [SNF2] : 2.94
2) KIRPWRTFRLNECVCTP [RPO31] : 1.99

Moving on to the next sequence.
So what's the measured protein stability index for this one? EGIEIYDRKKLPRKEVD [RPC11]
2.98

* * *

test: protein stability index of a GFP-peptide fusion (yeast GPS) (PSI 1-4); higher = more stable; sorted into four equal gates, so the index is relative within each strain; conditions: pdr5∆
# protein stability index per entry
Format: numeric value only, no unit, no commentary.

1. DPTLTTTTSFTTSEATA [RPN4] : 2.98
2. DKYHPGYFGKVGMRYFH [RPL28] : 2.99
3. RSMSGQPPTNVQPTIGQ [SNF5] : 2.97

Need protein stability index of EIRRSLSLNLGDYGSAK [POP5] , thanks.
3.06

Also, LESTIAETQGSKVVIDS [IRR1] please.
3.03

* * *

Measured protein stability index values are reported for all entries that follow.
experiment: protein stability index of a GFP-peptide fusion (yeast GPS) (PSI 1-4); higher = more stable; sorted into four equal gates, so the index is relative within each strain; conditions: ubr1∆
I only need the number, thanks.

Worked set:
1. ASVYPEYALPKTYNKLH [RPS26A] : 2.71
2. ALEFLNTTLQDNVSFIE [REC8] : 2.87
3. KKRSKARKETYSSYIYK [HTB1] : 2.95
4. MSKITSSQVREHVKELL [RPL1A] : 1.99
5. LKYSKRRSLKKQGRIKN [CSN12] : 3.25

// protein stability index lookup, key: NAQSKLSLTLNTHYHAD [SNF2]
3.09

What about this sequence? DAENEWNVEKFKKDFEV [RPC40]
1.82

Moving on to the next sequence: MQTALRRLPEDESYARA [QCR7]
2.39

* * *

assay: protein stability index of a GFP-peptide fusion (yeast GPS) (PSI 1-4); higher = more stable; sorted into four equal gates, so the index is relative within each strain; details: ubr1∆
Tick T if protein stability index is 2 or greater. Tick F if protein stability index is less than 2.

Examples from the recorded data:
1. IALLTLKESVEGEFNGD [PRE8] : T
2. RVVRPKSLDAETEAEED [RPO21] : F
3. LSRGDDEVTIRRTVGLK [SMC3] : T
4. MDNPRKLSKILRTEYGW [SNU114] : T
5. DNHSGDATANATANATA [DSN1] : T

Check this sequence for protein stability index at or above 2: SESQLNSTLKKVESQET [YCS4]
T

Also, STRASTVPNLPTTMVTN [ISW2] please.
T

Further, for DRMDVDEDESQNIAQSS [HRT1] ?
T

// next record LDGVSYLHQNWVLHRDL [SSN3]
T

Follow-up entry: PKKALKVKAGVRSANED [RRP43]
T

Quick one: NSTLKKVESQETLNDTI [YCS4]
T

PKCHSRENVFFQSQQRR [RPB9] ?
T

Thanks! And PLDEIPVDVDFNLDLDD [REC8] ?
T

Same question for FNLISNAGTEKEKESKK [YLR335W/NUP2] please.
T

Try this sequence next: ETVFNYRLMIKRLNFSF [GRR1]
F
